Each recorded value in this set is attributed to paper PMC3441732.

# SYSTEM: MARV VP35 RBD (Marburg virus, UniProt P35259 205-329)
# Sequence (P35259 205-329): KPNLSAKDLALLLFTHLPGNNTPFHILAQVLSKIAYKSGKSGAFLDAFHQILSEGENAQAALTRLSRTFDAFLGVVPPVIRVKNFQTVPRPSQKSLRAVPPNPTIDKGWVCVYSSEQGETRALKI
# TEST SUMMARY: dual-filter dot blot; Hill 3.1±0.2; 10 mM Tris pH 8.0, 200 mM NaCl, 2 mM TCEP ([…], and ITC); temperature not stated
# CONDITION DESCRIPTION: protein: recombinant; tags: 6xHis (pET46b), TEV-cleaved; chain copies: 4; label: 5'-32P sense strand (dot blot); none in ITC
MEASUREMENT LABEL: Kd (µM)
The answer is to be given in µM; state only the numeric part.

(Q) Query Kd for 18-bp dsRNA with 3' overhang (dsRNA) RNA 1: AGAAGGAGGGAGGGAGGAGAG RNA 2: CUCUCCUCCCUCCCUCCUUCU
(A) 9.3
